Assay: Human study: urinary excretion of α-thujone and hydroxythujones after consumption of a sage infusion (SIDA, SPME-GC-MS and LC-MS/MS)
Type: in vivo, humans
Details: after consumption of 575.0 µg α-thujone; hydroxythujones after liberation from glucuronides/sulfates

molecule	detection in urine of the volunteers
C[C@H]1C(=O)C[C@]2(C(C)(C)O)C[C@H]12 [7-OH, 7-hydroxythujone]	detectable
CC(C)[C@]12CC(=O)[C@H](C)[C@H]1C2	detectable
CC(C)[C@]12CC(=O)[C@@](C)(O)[C@H]1C2 [4-OH, 4-hydroxythujone]	detectable
